sensitivity class Ovarian OVCAR-3 CL6001 reference
- Test system: 60 cancer cell lines (NCI 60 cancer cell line series)
- protocol description: NCI-DTP in vitro cancer screen, sulforhodamine B (SRB) growth inhibition, 48 hour exposure; further: key: Low (1); Medium (2); High (3) sensitivity to a given compound
- Assay type: cell-based, human
- assay conditions: cell line Ovarian OVCAR-3, CL6001
Counter-ions that a name gives are not always drawn.
Form: value (number only, do not type unit).

Would you please look over these solved cases?
INSERT INTO assay_data (compound, system_name, observed) VALUES
  ('O=c1[nH]cc(F)c(=O)[nH]1', '60 cancer cell lines (NCI 60 cancer cell line series)', 2),
  ('OC[C@H]1O[C@@H](n2cnc3c2N=CNC[C@H]3O)C[C@@H]1O', '60 cancer cell lines (NCI 60 cancer cell line series)', 2),
  ('CC[C@]1(O)C[C@@H]2CN(CCc3c([nH]c4ccccc34)[C@@](C(=O)OC)(c3cc4c(cc3OC)N(C)[C@H]3[C@@](O)(C(=O)OC)[C@H](OC(C)=O)[C@]5(CC)C=CCN6CC[C@]43[C@@H]65)C2)C1 [Vinblastine sulfate]', '60 cancer cell lines (NCI 60 cancer cell line series)', 3),
  ('N[C@@H](Cc1ccc(N(CCCl)CCCl)cc1)C(=O)O', '60 cancer cell lines (NCI 60 cancer cell line series)', 2),
  ('CC[C@]1(O)C[C@H]2CN(CCc3c([nH]c4ccccc34)[C@@](C(=O)OC)(c3cc4c(cc3OC)N(C=O)[C@H]3[C@@](O)(C(=O)OC)[C@H](OC(C)=O)[C@]5(CC)C=CCN6CC[C@]43[C@@H]65)C2)C1 [Vincristine sulfate]', '60 cancer cell lines (NCI 60 cancer cell line series)', 3);

// sensitivity class Ovarian OVCAR-3 CL6001 lookup, key: NC(=O)NO [Hydroxyurea]
2

// sensitivity class Ovarian OVCAR-3 CL6001 lookup, key: COc1cc([C@@H]2c3cc4c(cc3[C@@H](O[C@@H]3O[C@@H]5CO[C@@H](C)O[C@H]5[C@H](O)[C@H]3O)[C@H]3COC(=O)[C@H]23)OCO4)cc(OC)c1O [Etoposide]
1

// sensitivity class Ovarian OVCAR-3 CL6001 lookup, key: COc1cc([C@@H]2c3cc4c(cc3[C@@H](O[C@@H]3O[C@@H]5CO[C@@H](c6cccs6)O[C@H]5[C@H](O)[C@H]3O)[C@H]3COC(=O)[C@H]23)OCO4)cc(OC)c1O [Teniposide]
2

// sensitivity class Ovarian OVCAR-3 CL6001 lookup, key: Sc1ncnc2nc[nH]c12
3

// sensitivity class Ovarian OVCAR-3 CL6001 lookup, key: O=C1c2c(O)ccc(O)c2C(=O)c2c(NCCNCCO)ccc(NCCNCCO)c21
1

// sensitivity class Ovarian OVCAR-3 CL6001 lookup, key: COc1cccc2c1C(=O)c1c(O)c3c(c(O)c1C2=O)C[C@@](O)(C(=O)CO)C[C@@H]3O[C@H]1C[C@H](N)[C@H](O)[C@H](C)O1
2

// sensitivity class Ovarian OVCAR-3 CL6001 lookup, key: CN(Cc1cnc2nc(N)nc(N)c2n1)c1ccc(C(=O)N[C@@H](CCC(=O)O)C(=O)O)cc1 [Methotrexate]
2

// sensitivity class Ovarian OVCAR-3 CL6001 lookup, key: COc1cccc2c1C(=O)c1c(O)c3c(c(O)c1C2=O)C[C@@](O)(C(C)=O)C[C@@H]3O[C@H]1C[C@H](N)[C@H](O)[C@H](C)O1
1

// sensitivity class Ovarian OVCAR-3 CL6001 lookup, key: COc1cccc2c1C(=O)c1c(O)c3c(c(O)c1C2=O)C[C@@](O)(C(=O)CO)C[C@@H]3O[C@H]1C[C@H](N)C[C@H](C)O1
2

====

- System: 60 cancer cell lines (NCI 60 cancer cell line series)
- protocol description: NCI-DTP in vitro cancer screen, sulforhodamine B (SRB) growth inhibition, 48 hour exposure; further: key: Low (1); Medium (2); High (3) sensitivity to a given compound
- Format: cell-based, human
- assay conditions: cell line NSCLC NCI-H332M, CL1017
Counter-ions that a name gives are not always drawn.
sensitivity class NSCLC NCI-H332M CL1017 reference
Form: value (number only, do not type unit).

Would you please look over these solved cases?
INSERT INTO assay_data (compound, observed) VALUES
  ('N[C@@H](Cc1ccc(N(CCCl)CCCl)cc1)C(=O)O', 1),
  ('COc1cccc2c1C(=O)c1c(O)c3c(c(O)c1C2=O)C[C@@](O)(C(C)=O)C[C@@H]3O[C@H]1C[C@H](N)[C@H](O)[C@H](C)O1', 1),
  ('NC(=O)NO [Hydroxyurea]', 1),
  ('O=C1c2c(O)ccc(O)c2C(=O)c2c(NCCNCCO)ccc(NCCNCCO)c21', 1),
  ('OC[C@H]1O[C@@H](n2cnc3c2N=CNC[C@H]3O)C[C@@H]1O', 2),
  ('O=c1[nH]cc(F)c(=O)[nH]1', 2),
  ('COc1cc([C@@H]2c3cc4c(cc3[C@@H](O[C@@H]3O[C@@H]5CO[C@@H](C)O[C@H]5[C@H](O)[C@H]3O)[C@H]3COC(=O)[C@H]23)OCO4)cc(OC)c1O [Etoposide]', 1),
  ('COc1cccc2c1C(=O)c1c(O)c3c(c(O)c1C2=O)C[C@@](O)(C(=O)CO)C[C@@H]3O[C@H]1C[C@H](N)[C@H](O)[C@H](C)O1', 1),
  ('CC[C@]1(O)C[C@@H]2CN(CCc3c([nH]c4ccccc34)[C@@](C(=O)OC)(c3cc4c(cc3OC)N(C)[C@H]3[C@@](O)(C(=O)OC)[C@H](OC(C)=O)[C@]5(CC)C=CCN6CC[C@]43[C@@H]65)C2)C1 [Vinblastine sulfate]', 2),
  ('CN(Cc1cnc2nc(N)nc(N)c2n1)c1ccc(C(=O)N[C@@H](CCC(=O)O)C(=O)O)cc1 [Methotrexate]', 2);

// sensitivity class NSCLC NCI-H332M CL1017 lookup, key: CC[C@]1(O)C[C@H]2CN(CCc3c([nH]c4ccccc34)[C@@](C(=O)OC)(c3cc4c(cc3OC)N(C=O)[C@H]3[C@@](O)(C(=O)OC)[C@H](OC(C)=O)[C@]5(CC)C=CCN6CC[C@]43[C@@H]65)C2)C1 [Vincristine sulfate]
2

// sensitivity class NSCLC NCI-H332M CL1017 lookup, key: Sc1ncnc2nc[nH]c12
2

// sensitivity class NSCLC NCI-H332M CL1017 lookup, key: COc1cc([C@@H]2c3cc4c(cc3[C@@H](O[C@@H]3O[C@@H]5CO[C@@H](c6cccs6)O[C@H]5[C@H](O)[C@H]3O)[C@H]3COC(=O)[C@H]23)OCO4)cc(OC)c1O [Teniposide]
1

====

- Test system: 60 cancer cell lines (NCI 60 cancer cell line series)
- protocol description: NCI-DTP in vitro cancer screen, sulforhodamine B (SRB) growth inhibition, 48 hour exposure; further: key: Low (1); Medium (2); High (3) sensitivity to a given compound
- Type: cell-based, human
sensitivity class Renal UO-31 CL9004 reference
Form: value (number only, do not type unit).

// sensitivity class Renal UO-31 CL9004 lookup, key: CC(=O)O[C@H]1C(=O)[C@@]2(C)[C@H]([C@H](OC(=O)c3ccccc3)[C@]3(O)C[C@H](OC(=O)[C@H](O)[C@@H](NC(=O)c4ccccc4)c4ccccc4)C(C)=C1C3(C)C)[C@]1(OC(C)=O)CO[C@@H]1C[C@@H]2O [TAXOL, paclitaxel, reference compound]
1

====

sensitivity class Renal UO-31 CL9004 reference
- Tested on: 60 cancer cell lines (NCI 60 cancer cell line series)
- protocol description: NCI-DTP in vitro cancer screen, sulforhodamine B (SRB) growth inhibition, 48 hour exposure; further: key: Low (1); Medium (2); High (3) sensitivity to a given compound
- Type: cell-based, human
- assay conditions: cell line Renal UO-31, CL9004
Where a name gives a salt, the structure may show the parent alone.
Form: value (number only, do not type unit).

INSERT INTO assay_data (molecule, system_name, observed) VALUES
  ('COc1cc([C@@H]2c3cc4c(cc3[C@@H](O[C@@H]3O[C@@H]5CO[C@@H](c6cccs6)O[C@H]5[C@H](O)[C@H]3O)[C@H]3COC(=O)[C@H]23)OCO4)cc(OC)c1O [Teniposide]', '60 cancer cell lines (NCI 60 cancer cell line series)', 1),
  ('CC[C@]1(O)C[C@@H]2CN(CCc3c([nH]c4ccccc34)[C@@](C(=O)OC)(c3cc4c(cc3OC)N(C)[C@H]3[C@@](O)(C(=O)OC)[C@H](OC(C)=O)[C@]5(CC)C=CCN6CC[C@]43[C@@H]65)C2)C1 [Vinblastine sulfate]', '60 cancer cell lines (NCI 60 cancer cell line series)', 1),
  ('N.N.[Cl][Pt][Cl] [cisplatin, cis-Diamminedichloroplatinum (II), reference compound]', '60 cancer cell lines (NCI 60 cancer cell line series)', 2),
  ('NC(=O)NO [Hydroxyurea]', '60 cancer cell lines (NCI 60 cancer cell line series)', 2);

// sensitivity class Renal UO-31 CL9004 lookup, key: COc1cccc2c1C(=O)c1c(O)c3c(c(O)c1C2=O)C[C@@](O)(C(=O)CO)C[C@@H]3O[C@H]1C[C@H](N)C[C@H](C)O1
1
